tested on: NCI-H226 lung; assay: NCI tumour cell line growth inhibition, 48 h
Quantity name: TGI (µM)
Return type: number; implicit unit µM.

Example entries begin here.
Compound | TGI / µM
COc1c(CNC(=O)CCl)cc2[nH]c(C)cc2c1CNC(=O)CCl | 73.7
N#CC(C#N)=CSc1ccccc1 | 51.2
O=c1c2ccccc2nc(-c2ccccc2)n1NC(=S)Nc1ccc(Cl)cc1[N+](=O)[O-] | 82.4
CC(C)c1cccc(C(C)C)c1NC(=O)C(=O)C(C(=O)c1ccc2ccccc2c1)C1OC(=O)c2ccccc21 (stereo unspecified) | 81.5

# next compound below
Req: Send back NCI-H226 lung TGI of "CN(C)CCNC(=O)c1cccc2nc3cccc(F)c3nc12" only.
Resp: 3.21

###

A collection of compounds and their measured TGI
test system: KM12 colon; test: NCI tumour cell line growth inhibition, 48 h

Compound | TGI
N#CC(C#N)=C(N)/C(C#N)=C/c1cc(O)c(O)c(Br)c1 | > 100 µM
CCc1c(Cl)nc(Cl)nc1Cl | 4.16 µM
Cc1cc2c(cc1C)[n+](=O)c(N1CCN(c3ccc([N+](=O)[O-])cc3)CC1)c(C#N)n2[O-] | > 100 µM
CC(=O)OCC1OC(OC2=C(CC=C(Cl)Cl)C(=O)c3ccccc3C2=O)C(OC(C)=O)C(OC(C)=O)C1OC(C)=O (stereo not given) | 10.1 µM

# next compound below
Req: Send back KM12 colon TGI of "COc1ccc(-c2nn(-c3cccc(NC(=O)Nc4cc(C(F)(F)F)cc(C(F)(F)F)c4)c3)cc2-c2ccncc2)cc1Cl" only.
Resp: 4.17 µM

###

tested on: SF-295 CNS; test: NCI tumour cell line growth inhibition, 48 h
A collection of molecules and their measured TGI

Example entries begin here.
Molecule | TGI
COC(=O)C1CCC(Nc2cccc(C(F)(F)F)c2)=N1 (centres undefined) | > 100 µM
c1ccc2c(c1)nc1n2CSC1 | > 100 µM
O=C1Nc2ccccc2Nc2nc3cccccc-3c21 | > 100 µM

Req: Give the reported value of TGI for this record: CC(C)=CC(=O)OC1C2C(C)C(=O)OC2C(O)C(C)C2C=CC(=O)C21C (centres undefined)
Resp: 13.4 µM

Req: Give the reported value of TGI for this record: "CSc1nc2c(N)ncnc2n1C"
Resp: > 100 µM

Req: Give the reported value of TGI for this record: CC(=O)OCC12C(OC(C)=O)C[C@@H](C)C3(CC(c4ccoc4)OC3=O)C1CCC(O)C21CO1 (some centres undefined)
Resp: > 100 µM

Req: Give the reported value of TGI for this record: CC1=C([Se]CC(OC(=O)[C@@H](CO)NC(=O)OC(C)(C)C)C(=O)NC(C)(C)C)C(=O)c2ccccc2C1=O (some centres undefined)
Resp: 1.06 µM

Req: Give the reported value of TGI for this record: O=C1CN2C(Cl)(Cl)C2(c2ccccc2)c2cc(Cl)ccc2N1CC(F)(F)F (centres undefined)
Resp: > 100 µM

Req: Give the reported value of TGI for this record: "O=C(Nc1nc2ccc([N+](=O)[O-])cc2[n+]([O-])n1)C(F)(F)F"
Resp: > 100 µM

Req: Give the reported value of TGI for this record: "CC1(C)CCc2cc3c(-c4ccccc4)cc(=O)oc3cc2O1"
Resp: > 100 µM

Req: Give the reported value of TGI for this record: "Clc1ccc(-c2nn3ncccc3c2-c2ccnc(Nc3ccccc3)n2)cc1"
Resp: > 25 µM

Req: Give the reported value of TGI for this record: "COc1ccc(C2=C(c3cc(OC)c(OC)c(OC)c3)C(=O)CC2)cc1"
Resp: > 20.5 µM

Req: Give the reported value of TGI for this record: "CN(C)CCNC(=O)c1cccc2nc3cccc(F)c3nc12"
Resp: 6.79 µM

Req: Give the reported value of TGI for this record: "O=C(O)C#CCO"
Resp: > 100 µM

Req: Give the reported value of TGI for this record: "COc1cc([C@@H]2c3cc4c(cc3[C@@H](O[C@@H]3O[C@@H]5CO[C@@H](c6cccs6)O[C@H]5[C@H](O)[C@H]3O)[C@H]3COC(=O)[C@H]23)OCO4)cc(OC)c1O"
Resp: 8.21 µM

Req: Give the reported value of TGI for this record: "COc1ccc(Cc2cnc(NC(=O)c3sc4ccccc4c3Cl)s2)cc1"
Resp: > 100 µM

Req: Give the reported value of TGI for this record: "CCn1c(=O)ccc2ccc(N(CCO)CCO)nc21"
Resp: > 100 µM

Req: Give the reported value of TGI for this record: CC1OC(OC2C(O)COC(OC3C(C)OC(OC4C(OC(=O)[C@]56CCC(C)(C)C[C@@H]5C5=CCC7[C@@]8(C)C[C@H](O)[C@H](OC9OC(CO)C(O)C(OC%10OC(CO)C(O)C(O)C%10O)C9O)[C@@](C)(CO)[C@@H]8CC[C@@]7(C)[C@]5(C)CC6)OCC(O)C4O)C(O)C3OC3OCC(O)C(O)C3O)C2O)C(O)C(O)C1O (some centres undefined)
Resp: 9.81 µM

Req: Give the reported value of TGI for this record: "COC(=O)c1ccc([N+](=O)[O-])c(O)c1"
Resp: > 100 µM

###

A collection of molecules and their measured GI50
system: RPMI-8226 leukemia; test: NCI tumour cell line growth inhibition, 48 h

Example entries begin here.
Molecule | Measured target | GI50
N#Cc1c(NC(=O)CN2CCOCC2)sc2c1CCCC2 | RPMI-8226 leukemia | > 25 µM
COc1ccc(-c2nn(-c3cccc(NC(=O)Nc4cc(C(F)(F)F)cc(C(F)(F)F)c4)c3)cc2-c2ccncc2)cc1Cl | RPMI-8226 leukemia | 0.54 µM
CC(=O)OC[C@]12CC[C@@H]([C@@H](C)C(N)=O)[C@@H]1[C@H]1CC[C@@H]3[C@@]4(C)CC[C@H](OC(C)=O)C(C)(C)[C@@H]4CC[C@@]3(C)[C@]1(C)CC2 | RPMI-8226 leukemia | 2.63 µM
CN(C)CCN=Cc1c2ccccc2c(=O)n2c1oc1ccccc12 | RPMI-8226 leukemia | 11.3 µM
C=C(C)[C@@H]1CCC2=C[C@@H](OC2=O)[C@@H](C(=C)C)C(=O)/C=C(/C)C(=O)C1 | RPMI-8226 leukemia | 1.76 µM
Clc1ccc(-c2nn3ncccc3c2-c2ccnc(Nc3ccccc3)n2)cc1 | RPMI-8226 leukemia | 11.7 µM
C#COc1cccc(Nc2ncnc3ncc(NC(=O)CCl)cc23)c1 | RPMI-8226 leukemia | > 19.8 µM
COc1cc2c3c(n(C)c(=O)c2cc1OC)-c1cc2c(cc1/C3=C\CCCBr)OCO2 | RPMI-8226 leukemia | 29.1 µM

Req: Give the reported value of GI50 for this record: "COC(=O)[C@@]1(C)CC[C@]2(C)CC[C@]3(C)C4=CC=C5C(=CC(=O)C(O)=C5C)[C@]4(C)CC[C@@]3(C)[C@@H]2C1"
Resp: 0.183 µM

Req: Give the reported value of GI50 for this record: NCC1OC(OC2C(CO)OC(OC3C(O)C(N)CC(N)C3OC3OC(CO)C(O)C(O)C3N)C2O)C(N)C(O)C1O (stereo not given)
Resp: > 50 µg/mL

###

system: T-47D breast; assay: NCI tumour cell line growth inhibition, 48 h; in the data active means GI50 below about 0.43 µM; inactive means the rest
Answer with one of the outcomes yes (1) for active, no (0) for inactive

The following compounds have reported results that may help.
Compound | Assigned label
COc1ccc(-c2nn(-c3cccc(NC(=O)Nc4cc(C(F)(F)F)cc(C(F)(F)F)c4)c3)cc2-c2ccncc2)cc1Cl | no (0)
Clc1ccc(-c2nn3ncccc3c2-c2ccnc(Nc3ccccc3)n2)cc1 | no (0)
CN(C)CCCNc1nccc(-c2c(-c3ccc(F)cc3)nn3cc(C(F)(F)F)ccc23)n1 | no (0)
CC[C@@H](C(=O)[C@@H](C)[C@@H](O)[C@H](C)[C@@H]1O[C@@H]([C@@H](CC)C(=O)O)CC[C@@H]1C)[C@H]1OC2(C=C[C@@H](O)[C@]3(CC[C@@](C)([C@H]4CC[C@](O)(CC)[C@H](C)O4)O3)O2)[C@H](C)C[C@@H]1C (stereo partly drawn) | yes (1)
O=C1/C(=C/c2ccccc2)CCC/C1=C\c1ccccc1 | no (0)

Req: For "COc1c(CNC(=O)CCl)cc2[nH]c(C)cc2c1CNC(=O)CCl" , what call appears in the results of this test?
Resp: no (0)

Req: For "CCOC(=O)c1c(C)n2c(=O)cc(C)c3c(OC(C)=O)c(OC(C)=O)cc1c32" , what call appears in the results of this test?
Resp: no (0)

Req: For "C#CCNC(=O)CC[C@]1(C)[C@H]2CC[C@@H]3[C@@H]([C@@](C)(O)CCC=C(C)C)CC[C@@]3(C)[C@]2(C)CC[C@H]1C(=C)C" , what call appears in the results of this test?
Resp: no (0)
